Examples of compounds with documented MIC follow.
Test system: VISA (ATCC-700699)
assayNotes: Minimum inhibitory concentration (MIC) assay, VISA
Assay type: cell-based, meticillin-resistant Staphylococcus aureus
appliedConditions: Staphylococcus aureus, ATCC 700699 / MRSA / VISA; microdilution, overnight 35 °C; read-out: MRSA MICs VISA
measurementLabel: MIC (µM)

- compound: "O=c1[nH]c(=O)n([C@H]2C[C@H](O)[C@@H](CO)O2)cc1F"
  unitAbbrev: "µM"
  relationSign: "="
  valueReported: 0.00625
- compound: "CC(=O)NC[C@H]1CN(c2ccc(N3CCOCC3)c(F)c2)C(=O)O1"
  unitAbbrev: "µM"
  relationSign: "="
  valueReported: 3.13
- compound: "CN(C)c1cc(NC(=O)CNC(C)(C)C)c(O)c2c1C[C@H]1C[C@H]3[C@H](N(C)C)C(O)=C(C(N)=O)C(=O)[C@@]3(O)C(O)=C1C2=O"
  unitAbbrev: "µM"
  relationSign: "="
  valueReported: 1.56
- compound: "C/C(=C\\C(=O)OCCCCCCCCC(=O)O)C[C@@H]1OC[C@H](C[C@@H]2O[C@H]2[C@@H](C)[C@H](C)O)[C@@H](O)[C@H]1O"
  unitAbbrev: "µM"
  relationSign: ">"
  valueReported: 100
- compound: "Nc1ccn([C@@H]2O[C@H](CO)[C@@H](O)C2(F)F)c(=O)n1"
  unitAbbrev: "µM"
  relationSign: "="
  valueReported: 0.05
- compound: "O=c1[nH]cc(F)c(=O)[nH]1"
  unitAbbrev: "µM"
  relationSign: "="
  valueReported: 6.25
- compound: "CC(C)(C)c1cc(C(C)(C)C)c(NC(=O)c2c[nH]c3ccccc3c2=O)cc1O"
  unitAbbrev: "µM"
  relationSign: "="
  valueReported: 6.25
- compound: "C[C@H]1c2cccc(O)c2C(=O)C2=C(O)[C@]3(O)C(=O)C(C(N)=O)=C(O)[C@@H](N(C)C)[C@@H]3[C@@H](O)[C@@H]21"
  unitAbbrev: "µM"
  relationSign: "="
  valueReported: 12.5
- compound: "OC1(c2ccc(Cl)c(C(F)(F)F)c2)CCN(CCCC(c2ccc(F)cc2)c2ccc(F)cc2)CC1"
  unitAbbrev: "µM"
  relationSign: "="
  valueReported: 3.13
- compound: "CCC[C@@H]1C[C@@H](C(=O)N[C@@H]([C@H]2O[C@H](SC)[C@H](O)[C@@H](O)[C@H]2O)[C@H](C)Cl)N(C)C1"
  unitAbbrev: "µM"
  relationSign: ">"
  valueReported: 100
- compound: "O=C(Nc1ccc([N+](=O)[O-])cc1Cl)c1cc(Cl)ccc1O [Niclosamide]"
  unitAbbrev: "µM"
  relationSign: "="
  valueReported: 0.39

* * *

Test system: MRSA USA 300 (ATCC-BAA-1680)
assayNotes: Minimum inhibitory concentration (MIC) assay, MRSA USA 300
Assay type: cell-based, meticillin-resistant Staphylococcus aureus
appliedConditions: Staphylococcus aureus; microdilution, overnight 35 °C; read-out: MRSA MICs USA 300
Protocol: The 1163 FDA-approved drugs were purchased as a library set from Selleckchem (catalog #L1300). For MIC assays, Ivacaftor, Mupirocin and Tigecycline were purchased from Santa Cruz Biotechnology (Dallas, TX, USA). All other test compounds were purchased from Sigma-Aldrich (St. Louis, MO, USA) and were used without further purification. […] The MICs of antibiotics and peptides were determined using the microdilution method from the Clinical and Laboratory Standards Institute (CLSI) guidelines. […]
Consider the cut-off 0.8 µM. If the recorded MIC is strictly smaller, the label is Fulfilled; if not, the label is Not fulfilled.

- compound: "CC(C)(C)c1cc(C(C)(C)C)c(NC(=O)c2c[nH]c3ccccc3c2=O)cc1O"
  label: "Not fulfilled"
- compound: "O=C(Nc1ccc([N+](=O)[O-])cc1Cl)c1cc(Cl)ccc1O [Niclosamide]"
  label: "Fulfilled"
- compound: "O=c1[nH]cc(F)c(=O)[nH]1"
  label: "Not fulfilled"
- compound: "Nc1ccn([C@@H]2O[C@H](CO)[C@@H](O)C2(F)F)c(=O)n1"
  label: "Fulfilled"
- compound: "O=c1[nH]c(=O)n([C@H]2C[C@H](O)[C@@H](CO)O2)cc1F"
  label: "Fulfilled"
- compound: "CC(=O)NC[C@H]1CN(c2ccc(N3CCOCC3)c(F)c2)C(=O)O1"
  label: "Not fulfilled"
- compound: "OC1(c2ccc(Cl)c(C(F)(F)F)c2)CCN(CCCC(c2ccc(F)cc2)c2ccc(F)cc2)CC1"
  label: "Not fulfilled"

* * *

System: MRSA USA 300 (ATCC-BAA-1680)
assayNotes: Minimum inhibitory concentration (MIC) assay, MRSA USA 300
Type: cell-based, meticillin-resistant Staphylococcus aureus
appliedConditions: Staphylococcus aureus; microdilution, overnight 35 °C; read-out: MRSA MICs USA 300
Procedure: The 1163 FDA-approved drugs were purchased as a library set from Selleckchem (catalog #L1300). For MIC assays, Ivacaftor, Mupirocin and Tigecycline were purchased from Santa Cruz Biotechnology (Dallas, TX, USA). All other test compounds were purchased from Sigma-Aldrich (St. Louis, MO, USA) and were used without further purification. […] The MICs of antibiotics and peptides were determined using the microdilution method from the Clinical and Laboratory Standards Institute (CLSI) guidelines. […]
Examples of compounds with documented MIC follow.
measurementLabel: MIC (µM)

- testSmiles: "C/C(=C\\C(=O)OCCCCCCCCC(=O)O)C[C@@H]1OC[C@H](C[C@@H]2O[C@H]2[C@@H](C)[C@H](C)O)[C@@H](O)[C@H]1O"
  measurementLabel: "MIC"
  valueReported: 0.39
- testSmiles: "CCC[C@@H]1C[C@@H](C(=O)N[C@@H]([C@H]2O[C@H](SC)[C@H](O)[C@@H](O)[C@H]2O)[C@H](C)Cl)N(C)C1"
  measurementLabel: "MIC"
  valueReported: 0.2
- testSmiles: "C[C@H]1c2cccc(O)c2C(=O)C2=C(O)[C@]3(O)C(=O)C(C(N)=O)=C(O)[C@@H](N(C)C)[C@@H]3[C@@H](O)[C@@H]21"
  measurementLabel: "MIC"
  valueReported: 0.78
